# TGT: DNA helicase IV (Escherichia coli K-12)
# RUN DESCRIPTION: Inhibition of helicase activity of Helicase4 from Escherichia coli at 10 uM
# Type: functional
TEST READOUT: inhibition (%)

{"columns": ["COMPOUND", "inhibition [%]"],
 "data": [
  ["CC(C(=O)O)c1ccc2c(c1)C(=O)c1ccccc1CS2 (stereo unspecified)", 93],
  ["Cc1ccc2c(c1)CSc1ccc(CC(=O)O)cc1C2=O", 53],
  ["O=C(O)Cc1ccc2c(c1)C(=O)c1ccccc1CS2", 79],
  ["O=C(O)Cc1ccc2c(c1)C(=O)c1ccccc1C[S+]2[O-] (stereo unspecified)", 0]
]}

1. CC(=O)Nc1ccc2c(c1)C(=O)c1cc(CC(=O)O)ccc1SC2
2. CCOC(=O)Cc1ccc2c(c1)C(=O)c1ccccc1CS2
Request: Dear colleague, could you let me know whether 1 or 2 has the lower recorded inhibition? Thanks. Respond using the label that marks the chosen record.
Response: 2
